Tested on: RARa:RXR (NR concentration 270 nM, RXRa partner concentration 90 nM)
protocol-details: PBM binding z-score (relative to random genomic background probes); higher = stronger binding; sequences stand for … in GC…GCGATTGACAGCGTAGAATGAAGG
measurement-type: PBM binding z-score
// no unit, no text: just the number

q: Return PBM binding z-score measured with RARa:RXR (NR concentration 270 nM, RXRa partner concentration 90 nM) given this sequence: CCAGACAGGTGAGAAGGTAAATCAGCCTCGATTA
a: 0.359

q: API: value(readout= PBM binding z-score, system= RARa:RXR (NR concentration 270 nM, RXRa partner concentration 90 nM), query= ATACCAAGGTGATCGTGAGGTCGGTGATACTAAC )
a: 0.998

q: Requested read-out PBM binding z-score, target or system RARa:RXR (NR concentration 270 nM, RXRa partner concentration 90 nM), entry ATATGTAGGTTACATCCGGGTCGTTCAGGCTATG
a: 1.35

q: // fetch RARa:RXR (NR concentration 270 nM, RXRa partner concentration 90 nM) PBM binding z-score for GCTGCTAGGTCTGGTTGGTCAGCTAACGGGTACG
a: -0.909

q: Requested read-out PBM binding z-score, target or system RARa:RXR (NR concentration 270 nM, RXRa partner concentration 90 nM), entry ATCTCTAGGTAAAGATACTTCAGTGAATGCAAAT
a: 0.522

q: Query PBM binding z-score on RARa:RXR (NR concentration 270 nM, RXRa partner concentration 90 nM) for TCTGCTAGGTCGGTTGGTCAGCTAACGAGCTGCC
a: -0.528

###

System: RARb:RXRa (NR concentration 270 nM, RXRa partner concentration 90 nM)
protocol-details: PBM binding z-score (relative to random genomic background probes); higher = stronger binding; sequences stand for … in GC…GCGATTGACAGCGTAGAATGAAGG
Each entry below lists one item and its recorded PBM binding z-score value.
# answer = number (no unit)

q: I have this sequence here, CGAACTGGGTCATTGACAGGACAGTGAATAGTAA , and I need its recorded PBM binding z-score.
a: 2.92

q: What value of PBM binding z-score has been recorded for this entry: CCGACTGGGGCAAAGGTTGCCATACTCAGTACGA
a: 1.03

q: Please report the recorded PBM binding z-score for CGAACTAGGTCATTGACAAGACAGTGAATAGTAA .
a: 3.61

q: Can you share its PBM binding z-score? I mean this sequence: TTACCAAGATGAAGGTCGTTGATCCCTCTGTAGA
a: 0.617

###

Test system: PPARg homodimer (NR concentration 180 nM)
protocol-details: PBM binding z-score (relative to random genomic background probes); higher = stronger binding; sequences stand for … in GC…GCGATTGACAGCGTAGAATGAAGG
Param threshold (0.3) applies to PBM binding z-score; output 1 (yes) when value >= threshold, 0 (no) when value < threshold.

Please review the following examples before continuing.
record_sequence=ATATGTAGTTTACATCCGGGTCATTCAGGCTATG group_label="1 (yes)"
record_sequence=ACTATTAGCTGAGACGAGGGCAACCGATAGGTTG group_label="0 (no)"
record_sequence=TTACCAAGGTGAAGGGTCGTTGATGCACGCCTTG group_label="1 (yes)"
record_sequence=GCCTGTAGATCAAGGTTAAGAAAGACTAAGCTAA group_label="0 (no)"
record_sequence=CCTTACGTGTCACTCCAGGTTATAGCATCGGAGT group_label="1 (yes)"

q: Hi, just wondering whether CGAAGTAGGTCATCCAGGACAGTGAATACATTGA shows PBM binding z-score of 0.3 or higher.
a: 1 (yes)

q: Decide: PBM binding z-score of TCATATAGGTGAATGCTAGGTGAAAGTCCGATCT >= 0.3?
a: 1 (yes)

q: Is PBM binding z-score at least 0.3? Consider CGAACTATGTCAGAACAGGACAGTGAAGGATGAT
a: 0 (no)

q: Does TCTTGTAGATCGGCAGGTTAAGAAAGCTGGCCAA have a reported PBM binding z-score of at least 0.3?
a: 0 (no)
